- assay-explanation: Tmax in CD-1 mouse at 20 mg/kg, po administered as DMSO/PEG400 formulation measured upto 24 hrs by LC-MS/MS analysis
- Assay type: ADME, organism-based
- assay-setup: in vivo
readout-label: Tmax (h)

| chem-smiles | test-value |
| --- | --- |
| O=c1c2nc([N+](=O)[O-])cn2ccn1Cc1ccc(-c2ccc(OC(F)(F)F)cc2)cn1 | 5.3 |
| O=c1c2nc([N+](=O)[O-])cn2ccn1Cc1ccc(OC(F)(F)F)cc1 | 5.3 |
| O=c1c2nc([N+](=O)[O-])cn2ccn1Cc1cccc(OC(F)(F)F)c1 | 3 |
| O=c1c2nc([N+](=O)[O-])cn2ccn1Cc1cccc(C(F)(F)F)c1 | 2.7 |
| O=c1c2nc([N+](=O)[O-])cn2ccn1Cc1ccc(-c2cccnc2)cc1 | 0.67 |

###

- System: Mycobacterium tuberculosis
- assay-explanation: Substrate activity at Mycobacterium tuberculosis Ddn expressed in Escherichia coli BL21 (DE3) assessed as oxidation of F420H2 by measuring Km by spectrophotometric analysis
# key: entry, value: Km
readout-label: Km (µM)

| chem-smiles | readout-label | test-value |
| --- | --- | --- |
| O=c1c2nc([N+](=O)[O-])cn2ccn1Cc1cccc(C(F)(F)F)c1 | Km | 9.4 |
| O=c1c2nc([N+](=O)[O-])cn2ccn1Cc1ccc(-c2cccc(OC(F)(F)F)c2)cc1 | Km | 8.4 |
| O=c1c2nc([N+](=O)[O-])cn2ccn1Cc1cccc(OC(F)(F)F)c1 | Km | 45 |
| Cc1nc(OCc2ccc(OC(F)(F)F)cc2)c2nc([N+](=O)[O-])cn2c1C | Km | 30 |

###

- assay-explanation: AUC(0 to 8 hrs) in CD-1 mouse at 20 mg/kg, po administered as DMSO/PEG400 formulation measured upto 24 hrs by LC-MS/MS analysis
- Type: ADME, organism-based
- Design: dose 20 mg/kg, time < 24 hrs, route po
- assay-setup: in vivo

| chem-smiles | AUC(0-t) at 24 h |
| --- | --- |
| O=c1c2nc([N+](=O)[O-])cn2ccn1Cc1cccc(C(F)(F)F)c1 | 20800 ng·h/mL |
| O=c1c2nc([N+](=O)[O-])cn2ccn1Cc1cccc(OC(F)(F)F)c1 | 15600 ng·h/mL |

###

- assay-explanation: Volume of distribution at steady state in CD-1 mouse at 10 mg/kg, iv measured upto 48 hrs by LC/MS/MS analysis
- Assay type: ADME, organism-based
- assay-setup: in vivo, read-out: Vdss
readout-label: Vd

| compound | test-value |
| --- | --- |
| O=[N+]([O-])c1cn2c(n1)OC[C@@H](OCc1ccc(OC(F)(F)F)cc1)C2 [PRETOMANID] | 1.6 L/kg |

###

# key: entry, value: MIC
- System: Mycobacterium tuberculosis
- assay-explanation: Antimycobacterial activity against Mycobacterium tuberculosis H37Ra ATCC 25177 assessed as bacterial growth inhibition incubated for 6 days under normoxic condition by resazurin microtiter assay
- Format: functional
- assay-setup: H37Ra ATCC 25177, 144 h, time 6 day

| compound | test-system | MIC |
| --- | --- | --- |
| Cc1cn2cc([N+](=O)[O-])nc2c(=O)n1Cc1ccc(OC(F)(F)F)cc1 | Mycobacterium tuberculosis | 4 µg/mL |
| O=[N+]([O-])c1cn2c(n1)OC[C@@H](OCc1ccc(OC(F)(F)F)cc1)C2 [PRETOMANID] | Mycobacterium tuberculosis | ≤ 0.016 µg/mL |
| O=c1c2nc([N+](=O)[O-])cn2ccn1Cc1cccc(C(F)(F)F)c1 | Mycobacterium tuberculosis | ≤ 0.016 µg/mL |
| Cc1nc(OCc2ccc(OC(F)(F)F)cc2)c2nc([N+](=O)[O-])cn2c1C | Mycobacterium tuberculosis | > 32 µg/mL |
| NNC(=O)c1ccncc1 [ISONIAZID] | Mycobacterium tuberculosis | 0.031 µg/mL |
| Cc1cccc(Cn2ccn3cc([N+](=O)[O-])nc3c2=O)c1 | Mycobacterium tuberculosis | ≤ 0.016 µg/mL |
| CO[C@H]1/C=C/O[C@@]2(C)Oc3c(C)c(O)c4c(O)c(c(/C=N/N5CCN(C)CC5)c(O)c4c3C2=O)NC(=O)/C(C)=C\C=C\[C@H](C)[C@H](O)[C@@H](C)[C@@H](O)[C@@H](C)[C@H](OC(C)=O)[C@@H]1C [RIFAMPIN] | Mycobacterium tuberculosis | < 0.016 µg/mL |
| O=c1c2nc([N+](=O)[O-])cn2ccn1Cc1ccc(OC(F)(F)F)cc1 | Mycobacterium tuberculosis | 0.031 µg/mL |
| O=c1[nH]c(-c2ccccc2)cn2cc([N+](=O)[O-])nc12 | Mycobacterium tuberculosis | > 32 µg/mL |
